# Tested on: RXF 393 renal
# Experimental protocol: NCI tumour cell line growth inhibition, 48 h
Where a SMILES comes first, the peptide text is derived from it. [ ]: non-standard residue; d: D form. The star is where a group is joined. X28 = COC1=CC(=O)N(C(=O)[C@@H](O*)C(C)C)[C@H]1Cc1ccccc1; NMeL = CN[C@@H](CC(C)C)C(=O)O; Hexanoyl = CCCCCC(=O)*
Property: TGI (µM)
The response must be a number in µM with no trailing unit.

Illustrative cases are given below, each with its answer.
CC(C)C[C@H](NC(=O)[C@@H](Cc1cccc2ccccc12)NC(=O)N1CCOCC1)B(O)O: 6.8
O=C1/C(=C/c2ccc(O)cc2)CCC1CNc1ccc(Cl)cc1 (centres undefined): 15.6
COc1cc(/C=C\c2ccc(SC)cc2)cc(OC)c1OC: 0.0402
O=Cc1ccc(C(F)(F)F)cc1.[C-]#[O+].[C-]#[O+].[C-]#[O+].[Cr]: 66.6

Look at this compound and give its reported TGI. NS(=O)(=O)c1ccc(CNC(=S)NC(=O)Nc2ccc(Cl)c(Cl)c2)cc1
84.7

Follow-up item: COc1ccccc1NC(=S)N/N=C(/c1ccccc1)c1ccccn1
13.9

Next compound: COc1ccc2c(c1)CC[C@@H]1C2CC[C@]2(C)OC(=O)CCC12 (some centres undefined)
29

// query: CCCCCC(=O)N[C@H](C(=O)N[C@H](C(=O)N(C)[C@@H](CC(C)C)C(=O)N1CCC[C@H]1C(=O)N1CCC[C@H]1C(=O)O[C@H](C(=O)N1C(=O)C=C(OC)[C@@H]1Cc1ccccc1)C(C)C)C(C)C)C(C)C (Hexanoyl-VV[NMeL]PP-X28)
90.3

Also COc1ccc(N=NN2CCCC2)cc1 ?
64.1

====

# Test system: SK-MEL-2 melanoma
# Experimental protocol: NCI tumour cell line growth inhibition, 48 h
A collection of compounds and their measured TGI
Quick note: give the figure in µM, leave out the unit.

Would you please look over these solved cases?
COc1ccc2c(c1)CCC(CN1CCN(CCOC(c3ccc(F)cc3)c3ccc(F)cc3)CC1)=C2: 33.3
CN(C)/[N+]([O-])=N/Oc1cc(Nc2ccc(C(=O)O)cc2)c([N+](=O)[O-])cc1[N+](=O)[O-]: 39
CSC(=S)N/N=C(\C)c1ccccn1: 3.75
CC(=O)c1ccc2c(c1)CC1(C2)Cc2cc3c(cc2C1)C(=O)CC3 (stereo not given): 5.75

Continue with the next compound.
Recorded TGI for C=C(C)C1CC2=C(C(=O)OC)C=C(O2)C(C(=C)C)[C@@H]2OC(=O)/C(=C\C1O)[C@H]2N(C)C (stereo not given in full) , please?
26.7

====

# System: SK-OV-3 ovarian
# Experimental protocol: NCI tumour cell line growth inhibition, 48 h
# GI50 annotations

COc1ccc(-n2c(N)c(C(=O)NCCN3CCOCC3)c3nc4ccccc4nc32)cc1OC: 85.5 µM
O=C1c2cccnc2-c2nc(-c3ccc([N+](=O)[O-])cc3)cc3c2c1nc1ccccc13: 11.4 µM
COc1ccc2c(CNCCCCO)cc3cc4c(cc3c2c1)OCO4: 4.2 µM
O=[N+]([O-])c1ccc2[nH]cc(-c3c4ccccc4cc4[nH]c5ccc([N+](=O)[O-])cc5c34)c2c1: 3.38 µM

Below: the item to evaluate.
Please give the measured GI50 for this compound: CCCNc1nc(-c2ccc(OC)cc2)nc2ccccc12
18.9 µM

====

# System: RPMI-8226 leukemia
# Experimental protocol: NCI tumour cell line growth inhibition, 48 h
Property: TGI (µM)
Unit µM implied. Number only.

O=Nc1c(-c2cccc([N+](=O)[O-])c2)nc2ncccn12: 6.56
Cc1ccc(/C=C(\C#N)n2nnc3cc(F)c(F)cc32)cc1: 8.71
CCOc1ccc(NC(=O)C2=C(C)NC(C)=C(C(=O)Nc3ccc(OCC)cc3)C2c2ccc([N+](=O)[O-])cc2)cc1: 64.2
CC(C)C[C@H](NC(=O)[C@@H](Cc1cccc2ccccc12)NC(=O)N1CCOCC1)B(O)O: 17.4
CCN(CCCl)CCNc1c2ccccc2nc2ccc(OC)cc12: 1.37
C=C(C)C1CC2=C(C(=O)OC)C=C(O2)C(C(=C)C)[C@@H]2OC(=O)/C(=C\C1O)[C@H]2N(C)C (some centres undefined): 14.9
CC(=O)NC1C(OCC(=O)NC(C)C(=O)NC(CCC(=O)NCCCCCNc2ccc([N+](=O)[O-])c3[nH]c4ccccc4c(=O)c23)C(N)=O)C(O)C(CO)OC1(C)OCc1ccccc1 (centres undefined): 36.6

Now for another entry.
Find the recorded TGI belonging to Cc1[nH]n(C(=O)c2ccccc2O)c(=O)c1/C=C1\C(=O)C=Cc2ccccc21 and report it.
31.1

====

Reported TGI values for a set of compounds
# Tested on: HCT-15 colon
# Experimental protocol: NCI tumour cell line growth inhibition, 48 h

Below, 4 compounds whose answers are already recorded.
Cc1ccc(S(=O)/C=C(\NC(=O)OCc2ccccc2)C(F)(F)F)cc1 (stereo not given): > 100 µM
CCCCc1ccc(N2C(=O)c3cc(C)cnc3S2(=O)=O)cc1: > 100 µM
CC(=O)NC1C(OCC(=O)NC(C)C(=O)NC(CCC(=O)NCCCCCNc2ccc([N+](=O)[O-])c3[nH]c4ccccc4c(=O)c23)C(N)=O)C(O)C(CO)OC1(C)OCc1ccccc1 (stereo not given): > 50 µM
COc1cc(-c2ccc(-c3ccc(C(=N)N)s3)s2)cc(OC)c1OC: 4.51 µM

Shifting focus to the compound that follows.
Enter reported TGI observed with HCT-15 colon for CCCCCCc1cc(C=O)sc1-c1ccc(-c2sc(-c3ccc(-c4ccc(-c5cc(CCCCCC)c(-c6ccc(-c7sc(C=O)cc7CCCCCC)s6)s5)s4)s3)cc2CCCCCC)s1
> 100 µM

====

# Tested on: KM12 colon
# Experimental protocol: NCI tumour cell line growth inhibition, 48 h; in the data active = GI50 below about 0.43 µM; inactive = the rest
Answer with one of the outcomes 1 = active, -1 = inactive

Below, 4 compounds whose answers are already recorded.
CC(C)[C@]12O[C@H]1[C@@H]1O[C@]13[C@]1(O[C@H]1C[C@H]1c4c(C(=O)c5ccccc5)oc(OC(=O)c5ccccc5)c4CC[C@@]13C)[C@@H]2O: 1
CN(C)/[N+]([O-])=N/Oc1cc(Nc2ccc(C(=O)O)cc2)c([N+](=O)[O-])cc1[N+](=O)[O-]: -1
NS(=O)(=O)c1ccc(-n2nc(-c3ccc(Cl)cc3)cc2C2=CC(=O)C=CC2=O)cc1: -1
CCCNc1nc(-c2ccc(OC)cc2)nc2ccccc12: -1

# outcome recorded in this test, key = COc1ccccc1Nc1nc(-c2cc3cccc(C(F)(F)F)c3oc2=O)cs1
1

Lookup Oc1ccc2ccccc2c1/C=N\Nc1ccccn1
-1

For COc1ccc(C(=O)Nc2cccc(C3CC(=O)c4c(cc(OC)c(OC)c4OC)O3)c2)cc1 (stereo not given) then?
-1

====

# System: UO-31 renal
# Experimental protocol: NCI tumour cell line growth inhibition, 48 h; in the data active means GI50 below about 0.43 µM; inactive means the rest
Write down the outcome that applies. Available outcomes: active, inactive

O=C(CCN1CCCC1)Nc1ccc2c(NCCCCc3ccccc3)c3ccccc3nc2c1: inactive
Cn1c2ccccc2c2c3c(c4c5ccccc5n(CCCCCC#N)c4c21)C(=O)N(O)C3=O: active
Cc1ccccc1NC(=O)NC(CC(N)=O)c1ccc2c(c1)nc(-c1cccc(Oc3ccc(C(C)(C)C)cc3)c1)n2CCCN1CCCCC1C (centres undefined): inactive
N#Cc1c2ccccc2c2nnc3cc(Cl)c(Cl)cc3n12: inactive

Please indicate how the test categorized O=C1c2cccc3cccc(c23)C(=O)N1CCCCOc1ccc(-c2nc3ccc(N4CCOCC4)cc3[nH]2)cc1 .
inactive

Follow-up entry: Cc1c2c(nn1-c1ccc(S/N=C3\SCC(=O)CN3c3ccccc3)cc1)-c1ccccc1CC2
inactive

// repeat for O=Cc1ccc(C(F)(F)F)cc1.[C-]#[O+].[C-]#[O+].[C-]#[O+].[Cr] and report
inactive

What do you have for CNCCNc1nc2ccccc2c2c(=O)c3cccc(OC)c3sc12 ?
active

Now the molecule COc1cc2c(/C=C3\C(=O)Nc4ccc(Br)cc43)c(Cl)n(C)c2cc1C
inactive

====

# Tested on: RXF 393 renal
# Experimental protocol: NCI tumour cell line growth inhibition, 48 h
Each record here notes measured TGI.

The cases that follow already have their TGI on record.
N=C(/C=C/c1ccc(-c2cn3cc(/C=C/C(=N)N4CCOCC4)ccc3n2)cc1)N1CCOCC1: > 100 µM
COc1ccc2c(CNCCCCO)cc3cc4c(cc3c2c1)OCO4: 2.49 µM
CC(=O)Nc1ccc(C(=O)N[C@@H]2C(=O)N3[C@@H]2SC(C)(C)[C@@H]3C(=O)O)cn1: > 100 µM

Requested read-out: TGI. Entry: CC(=O)OC1COC(N2C(=O)C(=O)c3cc(Br)c([N+](=O)[O-])cc32)C(OC(C)=O)C1OC(C)=O (stereo not given)
82.3 µM

Next record, please: Oc1ccc2ccccc2c1/C=N\Nc1ccccn1
> 57.4 µM
